Source of measurements: ChEMBL document CHEMBL1155028

test system: UniProt P14416
Sequence (P14416 whole entry): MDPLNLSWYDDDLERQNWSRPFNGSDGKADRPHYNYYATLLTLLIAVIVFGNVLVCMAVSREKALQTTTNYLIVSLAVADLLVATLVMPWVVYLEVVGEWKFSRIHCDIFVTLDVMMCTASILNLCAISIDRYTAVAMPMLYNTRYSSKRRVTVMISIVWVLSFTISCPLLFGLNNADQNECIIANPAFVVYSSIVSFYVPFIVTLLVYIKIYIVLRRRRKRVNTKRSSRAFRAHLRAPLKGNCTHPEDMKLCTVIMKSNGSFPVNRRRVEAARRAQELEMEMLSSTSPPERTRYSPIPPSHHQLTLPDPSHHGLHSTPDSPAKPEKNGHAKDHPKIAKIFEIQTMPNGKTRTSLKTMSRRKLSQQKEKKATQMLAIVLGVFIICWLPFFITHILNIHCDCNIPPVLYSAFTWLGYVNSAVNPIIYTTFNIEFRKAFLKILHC
method notes: Displacement of [3H]spiperone from human dopamine D2 receptor expressed in HEK293 cells
measured quantity: pKi
In simple prose, pKi is minus the logarithm base ten of a concentration in moles per litre.

Could you share which pKi value was measured for `CN1CCc2c3c(cc4nc(N)sc24)-c2c(ccc(O)c2O)C[C@H]31` ? 6.48

---

test system: 5-hydroxytryptamine receptor 1A (Rattus norvegicus, UniProt P19327)
Sequence (P19327 whole entry): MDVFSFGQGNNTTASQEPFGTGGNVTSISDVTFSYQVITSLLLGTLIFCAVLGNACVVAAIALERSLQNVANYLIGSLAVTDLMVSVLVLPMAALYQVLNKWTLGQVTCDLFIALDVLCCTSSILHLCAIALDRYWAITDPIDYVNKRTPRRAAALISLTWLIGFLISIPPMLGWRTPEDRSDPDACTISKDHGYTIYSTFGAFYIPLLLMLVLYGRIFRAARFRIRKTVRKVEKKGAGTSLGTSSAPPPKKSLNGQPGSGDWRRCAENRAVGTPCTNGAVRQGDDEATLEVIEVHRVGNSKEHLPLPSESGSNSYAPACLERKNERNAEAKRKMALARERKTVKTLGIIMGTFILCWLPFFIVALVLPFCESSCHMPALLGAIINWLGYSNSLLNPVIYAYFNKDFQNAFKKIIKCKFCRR
measured quantity: pKi
In simple prose, pKi is minus the logarithm base ten of a concentration in moles per litre.

Below: 2 compounds and their reported pKi.
CCCCC(=O)Oc1cccc2c1-c1cc(OC)cc3c1[C@@H](C2)N(C)CC3: 6.82
CN1CCc2cc(N)cc3c2[C@H]1Cc1cccc(N)c1-3: 5.64

Kindly state the measured pKi obtained for `COc1cc2c3c(c1)-c1c(N)cccc1C[C@H]3N(C)CC2` with 5-hydroxytryptamine receptor 1A (Rattus norvegicus, UniProt P19327). 6.19
